The origin of these recorded values is ChEMBL document CHEMBL3769310.

Target: Sigma non-opioid intracellular receptor 1 (Cavia porcellus, UniProt Q60492)
Sequence (Q60492 whole entry): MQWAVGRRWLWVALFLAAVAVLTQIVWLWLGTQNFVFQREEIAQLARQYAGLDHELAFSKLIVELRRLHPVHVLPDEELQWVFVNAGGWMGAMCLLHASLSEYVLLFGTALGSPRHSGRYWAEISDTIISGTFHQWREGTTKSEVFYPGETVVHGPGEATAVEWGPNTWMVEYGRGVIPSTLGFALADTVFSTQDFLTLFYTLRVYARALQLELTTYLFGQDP
Assay: Displacement of [3H]-(+)-pentazocine from sigma-1 receptor in guinea pig brain membranes after 150 mins by liquid scintillation counting method
Entries and their log10 Ki
Use the decimal logarithm of Ki (nM).

Some solved entries appear below for comparison.
>>> df
                                   molecule  experimental_value
0  c1ccc(CC2CCN(CC3COC(C4CCCCC4)(C4CCCCC4)O3)CC2)cc1 (stereo not given)                2.32
1  c1ccc(CC2CCN(CC3CSC(c4ccccc4)(c4ccccc4)S3)CC2)cc1 (stereo not given)                1.18
2  c1ccc(CC2CCN(CC3CCC(c4ccccc4)(c4ccccc4)O3)CC2)cc1 (stereo not given)                2.24
3  c1ccc(CN2CCN(C[C@@H]3CO[C@@](c4ccccc4)(C4CCCCC4)O3)CC2)cc1 (relative stereo)                1.49

# next molecule below
Prompt: // lookup log10 Ki | system=Sigma non-opioid intracellular receptor 1 (Cavia porcellus, UniProt Q60492) | key= c1ccc(CN2CCN(CC3COC(c4ccccc4)(c4ccccc4)O3)CC2)cc1 (stereo not given)
Response: 0.23
